# Test system: apple scab pathogen (Venturia inaequalis)
# test_protocol: Apple scab control test
# Assay type: in vivo
# assay_setup: 336 h, emulsion sprayed at 100 ppm active ingredient onto apple seedlings (Ralls Janet), lesions on leaves after 2 weeks vs untreated, read-out: control value
property_measured: pest or weed control at 100 ppm

Here's what some known entries look like.
In [3]: df
Out[3]:
                  compound_structure_string                property_measured  measured_result
0  Cc1cccc2c1OC(C)(C)CN=C2c1cnc2c(F)cccc2c1  pest or weed control at 100 ppm            ≥ 75%
1      CC1(C)CN=C(c2cnc3ccccc3c2)c2ccccc2O1  pest or weed control at 100 ppm            ≥ 75%

Could you now consider this next compound?
Entry `CC1(C)CN=C(c2cnc3ccccc3c2)c2cccc(Oc3ccccc3)c2O1` ; pest or weed control at 100 ppm = ≥ 75%

All figures here come from patent US8557738B2.
